Record form. Attribute: activity coefficient. Fill in for each entry.
METHOD NOTES: activity coefficient (dimensionless); of the first substance listed, at infinite dilution; xn = mol fraction of the nth substance listed
SETUP CONDITIONS: 328.15 K; Liquid; Chromatography; x1 = 0
Numbers only.

Go through the items and report each one's activity coefficient.
1. CCCCCCC [heptane] + CCCCn1cc[n+](C)c1.N#C[S-]
2. CCCO [propan-1-ol] + CCCCn1cc[n+](C)c1.N#C[S-]
3. C=CCCCC [hex-1-ene] + CCCCn1cc[n+](C)c1.N#C[S-]
4. c1ccccc1 [benzene] + CCCCn1cc[n+](C)c1.N#C[S-]

Result:
183
0.87
44.9
2.18

----------
METHOD NOTES: activity coefficient (dimensionless); of the first substance listed, at infinite dilution; xn = mol fraction of the nth substance listed
SETUP CONDITIONS: 298.15 K; Liquid; Chromatography; x1 = 0
VALUE TYPE: activity coefficient
Give bare numbers.

Recorded activity coefficient, per entry:
c1ccccc1 [benzene] + CCCCn1cc[n+](C)c1.N#C[S-]    2.13
Cc1ccc(C)cc1 [1,4-dimethylbenzene] + CCCCn1cc[n+](C)c1.N#C[S-]    5.51
Cc1ccccc1 [toluene] + CCCCn1cc[n+](C)c1.N#C[S-]    3.4

Please supply activity coefficient for each of the following items, keeping them in order.
1. C=CCCCCCC [oct-1-ene] + CCCCn1cc[n+](C)c1.N#C[S-]
2. C=CCCCCC [1-heptene] + CCCCn1cc[n+](C)c1.N#C[S-]
3. C#CCCC [1-pentyne] + CCCCn1cc[n+](C)c1.N#C[S-]
4. CO [methanol] + CCCCn1cc[n+](C)c1.N#C[S-]
5. C#CCCCC [1-hexyne] + CCCCn1cc[n+](C)c1.N#C[S-]
6. CCCCCC [hexane] + CCCCn1cc[n+](C)c1.N#C[S-]

Result:
[111, 81.1, 4.6, 0.416, 6.42, 226]

----------
METHOD NOTES: activity coefficient (dimensionless); of the first substance listed, at infinite dilution; xn = mol fraction of the nth substance listed
SETUP CONDITIONS: 328.15 K; Liquid; Chromatography; x1 = 0
Threshold 30: activity coefficient strictly smaller gives t, otherwise f.

CCCCCC [hexane] + CCCCn1cc[n+](C)c1.N#C[S-]    f
C=CCCCCCC [oct-1-ene] + CCCCn1cc[n+](C)c1.N#C[S-]    f
C1CCCCC1 [cyclohexane] + CCCCn1cc[n+](C)c1.N#C[S-]    f
O [water] + CCCCn1cc[n+](C)c1.N#C[S-]    t

Request: Does the reported activity coefficient of Cc1ccc(C)cc1 [1,4-dimethylbenzene] + CCCCn1cc[n+](C)c1.N#C[S-] stay below 30?
Result: t

----------
METHOD NOTES: activity coefficient (dimensionless); of the first substance listed, at infinite dilution; xn = mol fraction of the nth substance listed
SETUP CONDITIONS: 368.15 K; Liquid; Chromatography; x1 = 0
VALUE TYPE: activity coefficient
One number for each entry.

These solved cases illustrate the format of a correct answer.
CCO [ethanol] + CCCCn1cc[n+](C)c1.N#C[S-]    0.623
Cc1ccc(C)cc1 [1,4-dimethylbenzene] + CCCCn1cc[n+](C)c1.N#C[S-]    5.75
Cc1ccccc1 [toluene] + CCCCn1cc[n+](C)c1.N#C[S-]    3.65

Would you mind giving activity coefficient for every compound in the list below?
1. CCCO [propan-1-ol] + CCCCn1cc[n+](C)c1.N#C[S-]
2. O [water] + CCCCn1cc[n+](C)c1.N#C[S-]

Result:
0.8
0.325

Request: Consider the compound shown here: CCc1ccccc1 [ethylbenzene] + CCCCn1cc[n+](C)c1.N#C[S-] What is its recorded activity coefficient?
Result: 5.81

----------
I'd appreciate it if you could supply activity coefficient values for the items below.
METHOD NOTES: activity coefficient (dimensionless); of the first substance listed, at infinite dilution; xn = mol fraction of the nth substance listed
SETUP CONDITIONS: 358.15 K; Liquid; Chromatography; x1 = 0

C1CCCCCCC1 [cyclooctane] + CCCCn1cc[n+](C)c1.N#C[S-]    41.9
C1CCCCCC1 [cycloheptane] + CCCCn1cc[n+](C)c1.N#C[S-]    33.7
CCCCCCCCC [nonane] + CCCCn1cc[n+](C)c1.N#C[S-]    252

List the reported activity coefficient of each compound below.
1. C=CCCCC [hex-1-ene] + CCCCn1cc[n+](C)c1.N#C[S-]
2. CCCCCC [hexane] + CCCCn1cc[n+](C)c1.N#C[S-]
3. Cc1cccc(C)c1 [1,3-dimethylbenzene] + CCCCn1cc[n+](C)c1.N#C[S-]

Result:
1: 36.4; 2: 100; 3: 5.99

For every listed record, write down its activity coefficient.
1. C#CCCC [1-pentyne] + CCCCn1cc[n+](C)c1.N#C[S-]
2. CCCCCCCCCC [decane] + CCCCn1cc[n+](C)c1.N#C[S-]
3. c1ccccc1 [benzene] + CCCCn1cc[n+](C)c1.N#C[S-]

Result:
4.97
351
2.25

Hello, I would appreciate it if you could give activity coefficient for each entry below.
1. O [water] + CCCCn1cc[n+](C)c1.N#C[S-]
2. Cc1ccccc1 [toluene] + CCCCn1cc[n+](C)c1.N#C[S-]
3. Cc1ccc(C)cc1 [1,4-dimethylbenzene] + CCCCn1cc[n+](C)c1.N#C[S-]
4. C#CCCCCCC [1-octyne] + CCCCn1cc[n+](C)c1.N#C[S-]
5. CCc1ccccc1 [ethylbenzene] + CCCCn1cc[n+](C)c1.N#C[S-]

Result:
1. 0.323
2. 3.62
3. 5.72
4. 15.3
5. 5.82

Okay, here is my list. What is activity coefficient for each of these?
1. C=CCCC [1-pentene] + CCCCn1cc[n+](C)c1.N#C[S-]
2. CO [methanol] + CCCCn1cc[n+](C)c1.N#C[S-]
3. CCCO [propan-1-ol] + CCCCn1cc[n+](C)c1.N#C[S-]

Result:
1. 27.6
2. 0.383
3. 0.81

----------
METHOD NOTES: activity coefficient (dimensionless); of the first substance listed, at infinite dilution; xn = mol fraction of the nth substance listed
SETUP CONDITIONS: 348.15 K; Liquid; Chromatography; x1 = 0
VALUE TYPE: activity coefficient
Answers are plain numbers.

CCCCCCCC [octane] + CCCCn1cc[n+](C)c1.N#C[S-]    198
Cc1ccc(C)cc1 [1,4-dimethylbenzene] + CCCCn1cc[n+](C)c1.N#C[S-]    5.68
C=CCCC [1-pentene] + CCCCn1cc[n+](C)c1.N#C[S-]    30.6
C=CCCCCC [1-heptene] + CCCCn1cc[n+](C)c1.N#C[S-]    54.8
CCCCCCCCC [nonane] + CCCCn1cc[n+](C)c1.N#C[S-]    272

Okay, now this compound:
Request: Need activity coefficient, item Cc1ccccc1 [toluene] + CCCCn1cc[n+](C)c1.N#C[S-]
Result: 3.59

----------
METHOD NOTES: activity coefficient (dimensionless); of the first substance listed, at infinite dilution; xn = mol fraction of the nth substance listed
SETUP CONDITIONS: 308.15 K; Liquid; Chromatography; x1 = 0
Kindly return Met if reported activity coefficient is no lower than 20; return Not met if it is lower.

Illustrative cases are given below, each with its answer.
C=CCCCCCC [oct-1-ene] + CCCCn1cc[n+](C)c1.N#C[S-]    Met
CCCO [propan-1-ol] + CCCCn1cc[n+](C)c1.N#C[S-]    Not met
COC(C)(C)C [2-methoxy-2-methylpropane] + CCCCn1cc[n+](C)c1.N#C[S-]    Not met
C1CCCCC1 [cyclohexane] + CCCCn1cc[n+](C)c1.N#C[S-]    Met
CO [methanol] + CCCCn1cc[n+](C)c1.N#C[S-]    Not met

Request: Given C1CCCCCCC1 [cyclooctane] + CCCCn1cc[n+](C)c1.N#C[S-] , state whether its activity coefficient is at least 20.
Result: Met

----------
METHOD NOTES: activity coefficient (dimensionless); of the first substance listed, at infinite dilution; xn = mol fraction of the nth substance listed
SETUP CONDITIONS: 318.15 K; Liquid; Chromatography; x1 = 0
VALUE TYPE: activity coefficient
Give bare numbers.

C1CCCCCCC1 [cyclooctane] + CCCCn1cc[n+](C)c1.N#C[S-]    57.8
C1CCCCCC1 [cycloheptane] + CCCCn1cc[n+](C)c1.N#C[S-]    46.5
CCCCCCC [heptane] + CCCCn1cc[n+](C)c1.N#C[S-]    213

Lab note: each compound below needs its activity coefficient filled in.
1. COC(C)(C)C [2-methoxy-2-methylpropane] + CCCCn1cc[n+](C)c1.N#C[S-]
2. CCCCO [butan-1-ol] + CCCCn1cc[n+](C)c1.N#C[S-]
3. CCCCCCCC [octane] + CCCCn1cc[n+](C)c1.N#C[S-]
4. C#CCCC [1-pentyne] + CCCCn1cc[n+](C)c1.N#C[S-]
5. Cc1cccc(C)c1 [1,3-dimethylbenzene] + CCCCn1cc[n+](C)c1.N#C[S-]

Result:
1. 11.9
2. 1.25
3. 279
4. 4.71
5. 5.98
